Each recorded value in this set is attributed to the supplement of paper PMC7877785.

test: self-splicing fitness, log relative to wild type (ln ratio); higher = more splicing; Tetrahymena group I intron in knt gene, E. coli kanamycin selection, DiMSum; sequences stand for … in CUCUCU…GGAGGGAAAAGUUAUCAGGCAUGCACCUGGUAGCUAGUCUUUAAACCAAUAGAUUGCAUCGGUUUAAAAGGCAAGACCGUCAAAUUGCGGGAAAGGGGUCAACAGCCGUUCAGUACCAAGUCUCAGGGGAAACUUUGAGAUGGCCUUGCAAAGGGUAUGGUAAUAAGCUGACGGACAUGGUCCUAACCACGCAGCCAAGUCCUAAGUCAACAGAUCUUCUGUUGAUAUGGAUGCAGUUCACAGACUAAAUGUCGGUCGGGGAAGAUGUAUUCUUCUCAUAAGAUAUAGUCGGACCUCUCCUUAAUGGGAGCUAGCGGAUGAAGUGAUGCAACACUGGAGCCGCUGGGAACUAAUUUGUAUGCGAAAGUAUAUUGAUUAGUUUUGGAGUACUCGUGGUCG; conditions: 37 °C;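 also: selection with 25 µg/mL kanamycin versus none on LB agar overnight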
assayEndpoint: self-splicing fitness (ln)

1) AUUUAGCAAUAUUACGACAA; -0.936
2) UUGUAGCAAUAUUACGAGCU; -0.4
3) GGGGAGCAAUAUUACGGCAC; -1.06
4) UGGGAGCAAUAUUACGAUUG; -2.29
5) CGCGAGCAAUAUUACGGGUU; -2.44
6) CGGUAGCAAUAUUACGCCGG; -0.573
7) CAGAAGCAAUAUUACGUCUU; -0.306
8) ACGUAGCAAUAUUACGAACG; -0.927
9) GAGCAGCAAUAUUACGAAUG; -1.94
10) GUUCAGCAAUAUUACGGGAC; -1.16
11) UGAAAGCAAUAUUACGUAGA; -1.56
12) ACCAAGCAAUAUUACGGGUC; -2.67
13) CAUUAGCAAUAUUACGCGAG; -0.923
14) GUGCAGCAAUAUUACGUCCA; -0.793
15) UGGCAGCAAUAUUACGCCUA; 0.697
16) GCAUAGCAAUAUUACGGCAC; -0.425
17) GUACAGCAAUAUUACGUAGG; -0.471
18) CAGAAGCAAUAUUACGGAAA; -2.45
19) ACACAGCAAUAUUACGAAUC; -2.63
20) UCGCAGCAAUAUUACGAAUG; -4.35
21) CACGAGCAAUAUUACGAUUA; -2.12
22) AGUCAGCAAUAUUACGGGCG; 0.189
23) GAUUAGCAAUAUUACGUUCC; -1.59
24) GGAUAGCAAUAUUACGUGAC; -1.46
25) GUGAAGCAAUAUUACGUAGG; -0.218
26) UCGAAGCAAUAUUACGGCUU; -2.85
27) CCCUAGCAAUAUUACGCGGU; -2.53
28) GGCAAGCAAUAUUACGGAAC; 0.485
29) CCCCAGCAAUAUUACGACGG; -3.42
30) GCUAAGCAAUAUUACGUAAC; -0.735
31) CUACAGCAAUAUUACGAUAA; -1.49
32) CCAGAGCAAUAUUACGUUAG; -1.72
33) CCUGAGCAAUAUUACGGAGA; -3.09
34) AAUCAGCAAUAUUACGGAUA; 0.49
